# ASSAYED_SYSTEM: UniProt:Q15562
# ASSAY_INFO: Thermal shift assay TEAD2
# Format: binding
# Experimental: Example B: Thermal Shift Assay 1) Prepare a fresh dilution of Protein Thermal Shift™ Dye (Applied Biosystems, 1000×) to 8× by […]. 2) To ensure the same DMSO concentration, the compounds were diluted as follows: Prepare 10 mM stock solution of compounds; The final DMSO concentration was 0.1% 10 μM: Diluting stock solution to 100 μM by using PBS. 1 μM: Diluting stock solution to 1 mM by using DMSO, then dilute to 10 μM by using PBS. […]
MEASUREMENT_LABEL: TEAD2 ΔTm (°C)

1) CNS(=O)(=O)CCc1cc(Oc2ccc(C(F)(F)F)cc2)cc2cccnc12: 11.4
2) CNC(=O)[C@@H]1CC1c1cc(-c2ccc(C(F)(F)F)cc2)cc2scnc12 (mixture of isomers): 0
3) CNC(=O)[C@@H]1CC1c1cc(-c2ccc(C(F)(F)F)cc2)cc2c1=NC(C)N=2 (mixture of isomers): 5.5
4) Cn1ncc2c(C3C[C@H]3C(N)=O)cc(-c3ccc(C(F)(F)F)cc3)cc21 (mixture of isomers): 6.9

[A] O=C(O)[C@@H]1CC1c1cc(-c2ccc(C(F)(F)F)cc2)cc2scnc12 (mixture of isomers)
[B] Cn1cc2cc(N3CCC4(CCCC4)CC3)cc(C3C[C@H]3C(=O)N3C[C@H](O)[C@@H](O)C3)c2n1 (single isomer, unassigned)
Prompt: Which record would sort first by descending TEAD2 ΔTm, A or B ? Respond with the label that goes with your answer.
Response: B

[1] Cn1cc2cc(Oc3ccc(C(F)(F)F)cc3)cc([C@@H]3C[C@H]3C(=O)N=S(C)(C)=O)c2n1 (single isomer, unassigned)
[2] Cn1cc2cc(Oc3ccc(C(F)(F)F)cc3)cc(C3C[C@H]3C(=O)N3CCC[C@@H]3C#N)c2n1 (single isomer, unassigned)
[3] C[C@@H](C#N)NC(=O)[C@@H]1C[C@H]1c1cc(Oc2ccc(C(F)(F)F)cc2)cc2cn(C)nc12 (single isomer, unassigned)
Prompt: I would appreciate it if you could sort these 3 compounds by TEAD2 ΔTm, starting from the smallest number. // respond by listing labels in the order requested
Response: 1, 2, 3
(1: 6.0 °C, 2: 8.6 °C, 3: 13.9 °C)

[a] Cn1cc2cc(Oc3ccc(C(F)(F)F)cn3)cc([C@H]3C[C@@H]3C(=O)N3CC(O)C3)c2n1 (single isomer, unassigned) [Example 88b]
[b] Cn1ncc2c([C@@H]3C[C@H]3C(=O)N3CC(O)C3)cc(-c3ccc(C(F)(F)F)cc3)cc21 (racemic)
Prompt: Which record would sort first by descending TEAD2 ΔTm, a or b ? Respond with the label that goes with your answer.
Response: a
(a: 10.9 °C, b: 2.7 °C)

---

# ASSAYED_SYSTEM: TEAD2 (Homo sapiens)
# Sequence (Q15562 whole entry, species assumed): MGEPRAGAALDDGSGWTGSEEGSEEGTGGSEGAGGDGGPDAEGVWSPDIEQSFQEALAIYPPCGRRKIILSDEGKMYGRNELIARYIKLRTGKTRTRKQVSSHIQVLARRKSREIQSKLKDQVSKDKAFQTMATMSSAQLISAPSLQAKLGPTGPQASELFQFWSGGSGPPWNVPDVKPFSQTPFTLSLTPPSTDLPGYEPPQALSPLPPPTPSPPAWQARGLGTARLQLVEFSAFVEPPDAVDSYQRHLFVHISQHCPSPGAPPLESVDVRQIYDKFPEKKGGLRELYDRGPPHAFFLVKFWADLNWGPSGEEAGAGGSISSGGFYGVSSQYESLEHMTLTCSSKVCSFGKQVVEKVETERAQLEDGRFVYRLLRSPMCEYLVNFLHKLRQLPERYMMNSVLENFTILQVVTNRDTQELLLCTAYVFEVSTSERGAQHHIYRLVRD
# ASSAY_INFO: Thermal shift assay TEAD2
# Assay type: binding
MEASUREMENT_LABEL: TEAD2 ΔTm (°C)

1. Cn1cc2cc(Oc3ccc(C(F)(F)F)cc3)cc(C3C[C@H]3C(=O)NC34CC(O)(C3)C4)c2n1 (single isomer, unassigned) [Example 102]: 9.1

[A] Cn1cc2cc(Oc3ccc(C(F)(F)F)cc3)cc([C@H]3C[C@@H]3C(=O)N[C@@H](CO)c3ccccn3)c2n1 (single isomer, unassigned) [Example 59a]
[B] O=C(O)[C@@H]1CC1c1cn(-c2ccc(C(F)(F)F)cc2)c2cccnc12 (mixture of isomers) [Example 20]
[C] Cn1cc2cc(Oc3ccc(C(F)(F)F)cc3)cc([C@@H]3C[C@H]3C(=O)N3CC(C#N)C3)c2n1 (single isomer, unassigned) [Example 70]
Prompt: Rank entries according to their TEAD2 ΔTm, from the largest number down. // respond by listing labels in the order requested
Response: C, B, A

---

# Test system: NCI-H226 cells
# ASSAY_INFO: Cell growth assay (CellTiter-Glo)
# Assay type: cell-based, human
# TEST_CONTEXT: Homo sapiens, NCI-H226, 168 h, 7 days treatment, CellTiter-Glo luminescence, read-out: H226 CTG IC50
MEASUREMENT_LABEL: IC50

Solved entries (count: 6):
1) Cn1cc2cc(Oc3ccc(C(F)(F)F)cc3)cc([C@@H]3C[C@H]3C(=O)NC#N)c2n1 (single isomer, unassigned) [Example 71]: 1000 to 30000 nM
2) Cn1cc2cc(Oc3ccc(C(F)(F)F)cc3)cc(C3C[C@H]3C(=O)N3C[C@@H]4C[C@H]3C[C@@H]4O)c2n1 (single isomer, unassigned) [Example 103f]: < 100 nM
3) CNC(=O)[C@@H]1C[C@H]1c1cc(-c2ccc(C(F)(F)F)cc2)cc2c1cnn2C(F)F (racemic) [Example 32]: 100 to 500 nM
4) Cn1ncc2cc(-c3ccc(C(F)(F)F)cc3)cc(C3C[C@H]3C(=O)O)c21 (mixture of isomers) [Example 3]: 1000 to 30000 nM
5) CC(NC(=O)[C@@H]1C[C@H]1c1cc(-c2ccc(C(F)(F)F)cc2)cc2c1cnn2C)c1ccccn1 (mixture of isomers) [Example 28]: 100 to 500 nM
6) CNC(=O)[C@@H]1CC1c1cc(-c2ccc(C(F)(F)F)cc2)cc2cccnc12 (mixture of isomers) [Example 38]: 100 to 500 nM

Per the records, this compound ( Cn1cc2cc(Oc3ccc(C(F)(F)F)cc3)cc(C3C[C@H]3C(=O)N3CC4(CC(O)C4)C3)c2n1 (single isomer, unassigned) [Example 97] ) has IC50 equal to < 100 nM

Per the records, this compound ( Cn1cc2cc(Oc3ccc(C(F)(F)F)cc3)cc(C3C[C@H]3C(=O)N3CCC[C@H]3C#N)c2n1 (single isomer, unassigned) [Example 73] ) has IC50 equal to < 100 nM

Per the records, this compound ( Cn1cc2cc(Oc3ccc(C(F)(F)F)cc3)cc([C@@H]3C[C@H]3C(=O)NCCO)c2n1 (single isomer, unassigned) [Example 125] ) has IC50 equal to < 100 nM

Per the records, this compound ( Cn1cc2cc(Oc3ccc(C(F)(F)F)cc3)cc([C@@H]3C[C@H]3C(=O)N=S(C)(C)=O)c2n1 (single isomer, unassigned) [Example 134] ) has IC50 equal to < 100 nM

Per the records, this compound ( C[C@@H](C#N)NC(=O)[C@@H]1C[C@H]1c1cc(Oc2ccc(C(F)(F)F)cc2)cc2cn(C)nc12 (single isomer, unassigned) [Example 69] ) has IC50 equal to < 100 nM

Per the records, this compound ( O=C(O)[C@@H]1C[C@H]1c1cc(Oc2ccc(C(F)(F)F)cc2)cc2c1NCCC2 (racemic) [Example 144] ) has IC50 equal to 1000 to 30000 nM

Per the records, this compound ( Cn1cc2cc(Oc3ccc(C(F)(F)F)cc3)cc(C3C[C@H]3C(=O)NC34CC(O)(C3)C4)c2n1 (single isomer, unassigned) [Example 102] ) has IC50 equal to < 100 nM

Per the records, this compound ( CNC(=O)[C@@H]1CC1c1cc(OCc2ccc(C(F)(F)F)cc2)cc2c1cnn2C (mixture of isomers) [Example 37] ) has IC50 equal to 1000 to 30000 nM

---

# ASSAYED_SYSTEM: TEAD1 (Homo sapiens)
# Sequence (P28347 whole entry, species assumed): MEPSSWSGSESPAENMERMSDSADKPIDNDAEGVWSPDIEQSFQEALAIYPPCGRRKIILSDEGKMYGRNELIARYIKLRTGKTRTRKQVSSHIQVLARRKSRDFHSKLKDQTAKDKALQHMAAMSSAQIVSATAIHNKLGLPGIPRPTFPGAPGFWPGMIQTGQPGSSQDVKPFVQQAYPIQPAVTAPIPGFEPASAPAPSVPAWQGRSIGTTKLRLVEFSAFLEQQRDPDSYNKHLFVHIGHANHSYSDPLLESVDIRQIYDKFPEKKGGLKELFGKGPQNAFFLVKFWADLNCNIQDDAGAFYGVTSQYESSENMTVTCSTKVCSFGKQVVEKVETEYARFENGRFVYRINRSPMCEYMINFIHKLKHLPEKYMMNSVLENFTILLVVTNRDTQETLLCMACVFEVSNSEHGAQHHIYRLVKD
# ASSAY_INFO: Thermal shift assay TEAD1
# Format: binding
MEASUREMENT_LABEL: TEAD1 ΔTm (°C)

Solved entries (count: 5):
1. CNS(=O)(=O)CCCc1cc(-c2ccc(C(F)(F)F)cc2)cc2cn(C)nc12: 4.7
2. Cn1cc2cc(Oc3ccc(C(F)(F)F)cc3)cc(C3C[C@H]3C(=O)N3CCC[C@H]3C#N)c2n1 (single isomer, unassigned): 9.5
3. Cn1cc2cc(Oc3ccc(C(F)(F)F)cn3)cc([C@@H]3C[C@H]3C(=O)N3CC(O)C3)c2n1 (single isomer, unassigned) [Example 88a]: −0.3
4. C[C@H](CO)NC(=O)[C@@H]1CC1c1cc(Oc2ccc(C(F)(F)F)cc2)cc2cn(C)nc12 (single isomer, unassigned): 11.3
5. CNC(=O)[C@H]1C[C@@H]1c1cc(Oc2ccc(C(F)(F)F)cc2)cc2cn(C)nc12 (single isomer, unassigned) [Example 34b]: 10.2

[P] CNC(=O)[C@@H]1CC1c1cc(-c2ccc(C(F)(F)F)cc2)cc2c1cnn2C (stereo partly shown) [Example 40]
[Q] Cn1cc2cc(Oc3ccc(C(F)(F)F)cc3)cc([C@H]3C[C@@H]3C(=O)N3CC(O)C3)c2n1 (single isomer, unassigned) [Example 58b]
Prompt: Compare P and Q and name the one whose reported TEAD1 ΔTm is smaller. Respond with the label that goes with your answer.
Response: P

---

# ASSAYED_SYSTEM: TEAD1 (Homo sapiens)
# ASSAY_INFO: Thermal shift assay TEAD1
# Format: binding
# Experimental: Example B: Thermal Shift Assay 1) Prepare a fresh dilution of Protein Thermal Shift™ Dye (Applied Biosystems, 1000×) to 8× by […]. 2) To ensure the same DMSO concentration, the compounds were diluted as follows: Prepare 10 mM stock solution of compounds; The final DMSO concentration was 0.1% 10 μM: Diluting stock solution to 100 μM by using PBS. 1 μM: Diluting stock solution to 1 mM by using DMSO, then dilute to 10 μM by using PBS. […]
MEASUREMENT_LABEL: TEAD1 ΔTm (°C)

Solved entries (count: 5):
1) O=C(O)[C@@H]1CC1c1cc(-c2ccc(C(F)(F)F)cc2)cc2cn(-c3cccnc3)nc12 (mixture of isomers): 5
2) CC(NC(=O)[C@@H]1C[C@H]1c1cc(-c2ccc(C(F)(F)F)cc2)cc2c1cnn2C)c1ccccn1 (mixture of isomers): 3.7
3) Cn1ncc2c(C3C[C@H]3C(=O)O)cc(-c3ccc(OC(F)(F)F)cc3)cc21 (mixture of isomers): 6
4) Cn1cc2cc(Oc3ccc(C(F)(F)F)cn3)cc([C@H]3C[C@@H]3C(=O)N3CC(O)C3)c2n1 (single isomer, unassigned) [Example 88b]: 7.6
5) Cn1cc2cc(Oc3ccc(C(F)(F)F)cc3)cc([C@H]3C[C@@H]3C(=O)N[C@@H](CO)c3ccccn3)c2n1 (single isomer, unassigned) [Example 59a]: 6.9

[P] Cn1cc2cc(Oc3ccc(C(F)(F)F)cc3)cc(C3C[C@H]3C(=O)NC[C@H]3C[C@@H](O)[C@@H](O)C3O)c2n1 (single isomer, unassigned)
[Q] CC(=O)NS(=O)(=O)CCc1cc(-c2ccc(C(F)(F)F)cc2)cc2cn(C)nc12
[R] Cn1cc2cc(Oc3cc(F)ccc3C(F)(F)F)cc([C@@H]3C[C@H]3C(=O)N3CC(O)C3)c2n1 (single isomer, unassigned)
Prompt: I would appreciate it if you could sort these 3 compounds by TEAD1 ΔTm, starting from the smallest number. // respond by listing labels in the order requested
Response: R, P, Q
(R: 1.1 °C, P: 5.0 °C, Q: 10.4 °C)
